Target: T1, 4H2078-AA
T1 chain: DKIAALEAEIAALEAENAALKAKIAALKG
Test: two-hybrid library CCmax;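 also: natural log of median RNA to DNA barcode read ratio; higher means stronger binding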
Settings: mean of both orientations
RESULT_TYPE: interaction score
Output spec: single numeric token, no unit.

Examples from the recorded data:
binder="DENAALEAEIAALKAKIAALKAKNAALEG [4H1135-AA]" recorded_number=-1.19
binder="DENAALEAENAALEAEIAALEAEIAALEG [4H1153-AA]" recorded_number=-0.975
binder="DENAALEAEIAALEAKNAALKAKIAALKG [4H1086-AA]" recorded_number=-1.42

Next binder, interaction score to be filled in.
Query string: State the recorded interaction score for this entry: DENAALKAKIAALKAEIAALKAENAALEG [4H1867-AA]
Result string: -0.776
